Assay Explanation: Cmax in C57BL/6J mouse bone marrow at 500 mg/kg administered via oral gavage measured after 30 mins by LC-MS analysis
Format: ADME, organism-based
Set-up: dose 500 mg/kg, route oral
Reported Metric: Cmax (µM)

1. COc1cc(/C=C/C(=O)CC(=O)/C=C/c2ccc(O)c(OC)c2)ccc1O 5.9

----------
Assay Explanation: Drug metabolism in C3H/HeJ mouse exhibiting decrease in GUSB activity assessed as level of curcumin-glucuronide in serum at 100 mg/kg, ip measured after 20 mins by LC-MS analysis
Assay type: ADME, organism-based
Assay Conditions: in vivo, read-out: Ct
Reported Metric: concentration (µM)

1) COc1cc(/C=C/C(=O)CC(=O)/C=C/c2ccc(O)c(OC)c2)ccc1O 92.1
